Protein target, amino acids: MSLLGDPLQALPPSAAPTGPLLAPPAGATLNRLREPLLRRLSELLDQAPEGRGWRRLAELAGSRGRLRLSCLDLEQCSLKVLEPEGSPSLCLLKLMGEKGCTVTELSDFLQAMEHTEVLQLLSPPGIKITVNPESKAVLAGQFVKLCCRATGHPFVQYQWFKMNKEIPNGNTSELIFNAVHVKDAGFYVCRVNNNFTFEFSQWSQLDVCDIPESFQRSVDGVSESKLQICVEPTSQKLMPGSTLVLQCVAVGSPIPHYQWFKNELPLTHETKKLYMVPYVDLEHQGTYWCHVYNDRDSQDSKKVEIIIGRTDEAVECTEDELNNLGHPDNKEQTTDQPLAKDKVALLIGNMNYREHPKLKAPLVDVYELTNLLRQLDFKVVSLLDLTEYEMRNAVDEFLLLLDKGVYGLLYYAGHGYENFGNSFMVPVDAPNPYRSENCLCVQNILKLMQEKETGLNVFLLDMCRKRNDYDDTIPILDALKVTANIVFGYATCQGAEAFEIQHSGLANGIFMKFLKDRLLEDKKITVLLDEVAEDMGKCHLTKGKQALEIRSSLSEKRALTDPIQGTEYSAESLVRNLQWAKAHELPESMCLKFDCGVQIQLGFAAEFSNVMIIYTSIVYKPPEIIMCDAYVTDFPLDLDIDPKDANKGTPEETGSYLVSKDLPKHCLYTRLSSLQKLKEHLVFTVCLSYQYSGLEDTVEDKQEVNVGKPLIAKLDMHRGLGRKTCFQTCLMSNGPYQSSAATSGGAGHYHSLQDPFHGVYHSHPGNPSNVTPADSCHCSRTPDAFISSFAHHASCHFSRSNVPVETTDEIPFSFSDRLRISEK
pIC50: −log10 of the molar value.
pIC50 for assorted molecules

Example entries and their recorded answers appear below.
CN(C)c1ccc(-c2ccc(S(=O)(=O)Nc3cccc4cnn(C)c34)cn2)cn1 [Example I-110]; < 5.60
COc1cc(NS(=O)(=O)c2ccc(-n3cc(C(F)(F)F)cn3)nc2)c2c(cnn2C)c1 [Example I-72]; 5.60 to 6.00
COc1ccc2cnn(C)c2c1NS(=O)(=O)c1ccc(-c2cnn3c2COCC3)nc1 [Example I-308]; 5.60 to 6.00

# context switch: different molecule, same pIC50
Challenge: Request the reported pIC50 associated with COc1ccc2cnn(C)c2c1NS(=O)(=O)c1ccc(-n2ncc(C(F)(F)F)n2)nc1 [Example I-28]
Response given: 6.00 to 6.40
